Reference source for all entries: a melting point compilation (Tetko et al.; mined from patent text by program, amines drawn as free bases though some values may be those of a salt)

Entries annotated with measured melting point

Example entries and their recorded answers appear below.
COc1cc(-c2oc3ccccc3c(=O)c2C(=O)N2CCN(c3ccccn3)CC2)cc(OC)c1OC : 90 to 95 °C
CC1(C)CC(=O)C2=C(C1)NC1=C(C(=O)CC(C)(C)C1)C2c1ccc(Cl)c(Oc2ccccc2)c1 : 246 to 248 °C
CCNC(=S)NS(=O)(=O)c1cc2c(cc1OC)OCCC2CNC(=O)N1CC(C)=C(CC)C1=O (stereo not given) : 147 °C
Nc1ccc(Sc2ccc3c(c2)OCC(=O)N3)cc1 : 232 to 234 °C
COc1cccc(-c2nc3n(n2)Cc2cc(OC)ccc2-3)c1 : 166 to 167 °C

Req: Please give the measured melting point for this compound: O=C(Nc1ccc(NC(=S)NCc2ccccc2)cc1)c1ccc(NC(=S)NCc2ccccc2)cc1
Resp: 207 °C

Req: Please give the measured melting point for this compound: CCOC(=O)C(C)(C)Oc1ccc(C=Cc2ccccc2)cc1
Resp: 55 to 65 °C

Req: Please give the measured melting point for this compound: COC(=O)c1ccc(CNS(C)(=O)=O)cc1S(=O)(=O)Cl
Resp: 93 to 94 °C

Req: Please give the measured melting point for this compound: Cc1ccc2c(c1)C=Cc1cc(C)c(C)cc1C2c1cn(Cc2ccc(C(=O)O)o2)c(=O)[nH]c1=S (stereo not given)
Resp: 292 °C

Req: Please give the measured melting point for this compound: CCOC(=O)c1ccc2nc(NC(C)=O)n(S(=O)(=O)N(C)C)c2c1
Resp: 155 to 157 °C

Req: Please give the measured melting point for this compound: NS(=O)(=O)c1ccccc1CCC(F)(F)F
Resp: 148 to 149 °C

----------
parameter: melting point

Example entries and their recorded answers appear below.
Cc1cc(-c2ccc3nnn(Cc4ccc5ncccc5c4)c3n2)ccc1C(N)=O : 235 to 237 °C
CS(=O)(=O)c1ccc(-c2oc(C(=O)O)cc(=O)c2-c2ccc(Cl)cc2)cc1 : 236 °C
COc1cc(NCC(O)CO)c([N+](=O)[O-])cc1O (centres undefined) : 180 °C
COc1cc2cc3c(ccc4cc(Cl)ccc43)nc2cc1OC : 241 to 243 °C
CSCC(=O)Nc1cccc(C(F)(F)F)c1 : 75 to 77 °C

Req: Please give the measured melting point for this compound: CCOC(=O)[C@@H]1C[C@H]([N+](=O)[O-])[C@@H](C(=O)O)[C@H](OC(CC)CC)[C@@H]1Sc1ccc(C)cc1
Resp: 135 to 136 °C

Req: Please give the measured melting point for this compound: COc1ccc(-c2ccc3[nH]c(=O)ccc3c2)cc1
Resp: 262 to 264 °C

Req: Please give the measured melting point for this compound: C#CCn1c(=O)n(CC=C)c(=O)n(-c2cc(N3C(=O)C4=C(CCCC4)C3=O)c(F)cc2Cl)c1=O
Resp: 107 to 114 °C

Req: Please give the measured melting point for this compound: CC(=O)N1c2ccccc2-n2cnc(-c3nc(C4CC4)no3)c2C1(C)C
Resp: 169 to 171 °C

----------
parameter: melting point

Example entries and their recorded answers appear below.
Cc1c(NC(=O)c2ccc(-c3cc4ccccc4o3)cc2F)ccc2cc(CN3CCCC3)cnc12 : 202 to 203 °C
Cc1ccc(CSc2nc3cscc3n2C(=O)OCc2ccccc2)nc1 : 103 to 104 °C
CCn1cc(C(=O)Nc2ccccc2)c(=O)n2c3ccccc3nc12 : 268 to 270 °C
CCC(CC)CNC(=O)c1ccc(CN2C(=O)C3(COc4cc5c(cc43)CCO5)c3ccccc32)cc1 (stereo not given) : 211 to 213 °C

Req: Please give the measured melting point for this molecule: COC(=O)c1cc2c3ccccc3n(-c3ccccc3)c2s1
Resp: 147 to 149 °C

Req: Please give the measured melting point for this molecule: CC(=O)OC1C(OC(=O)c2ccccc2)C(COC(=O)c2ccccc2)OC1n1cc(F)c(=O)[nH]c1=O (stereo not given)
Resp: 96 to 98 °C

Req: Please give the measured melting point for this molecule: CCc1cccc(N2C(=S)SCC2(O)CC)n1 (stereo not given)
Resp: 84 °C

Req: Please give the measured melting point for this molecule: CC(C)(C)OC(=O)NCCCCNC(=O)Cc1ccc2ccccc2c1
Resp: 102 °C

Req: Please give the measured melting point for this molecule: COC(=O)CCCc1nnc(-c2nccs2)c2cc(OC)ccc12
Resp: 136 to 137 °C

Req: Please give the measured melting point for this molecule: CCCc1nn(C)c2c(=O)[nH]c(-c3cc(C(=O)CBr)ccc3OCC)nc12
Resp: 159 to 160 °C

Req: Please give the measured melting point for this molecule: CC(C)(C)[C@H]1OC(=O)[C@H](c2cccc(Cl)c2)O1
Resp: 40 to 42 °C

Req: Please give the measured melting point for this molecule: Nc1cc2c(cc1C(=O)CNC(=O)C(F)(F)F)OCO2
Resp: 219 to 220 °C

Req: Please give the measured melting point for this molecule: O=C(O)[C@@H]1CC2(CN1C(=O)CP(=O)(O)CCCCc1ccccc1)SCCS2
Resp: 106 to 107 °C

Req: Please give the measured melting point for this molecule: O=C(O)C(Br)CCCCCc1ccc(Cl)cc1 (stereo not given)
Resp: 77 to 79 °C
